Below: molecules with IC50 recorded for Cyclin-dependent kinase 7 (Homo sapiens, UniProt P50613) in separate published works.

Prompt: Which IC50 reading was recorded for the molecule C=CC(=O)Nc1ccc(C(=O)Nc2n[nH]c3c2CN(C(=O)N[C@H](CN(C)C)c2ccccc2)C3(C)C)c(OC)c1 ?
Completion: < 0.1 µM

More entries:
Prompt: Bench note: what IC50 did Nc1ccc(C(=O)N[C@H]2CCC[C@@H](Nc3ncc(Cl)c(-c4c[nH]c5ccccc45)n3)C2)cc1F show?
Completion: 0.1 to 1 µM

Prompt: Using the record for C=CC(=O)N[C@H]1CC[C@H](C(=O)Nc2n[nH]c3c2CN(C(=O)N[C@H](CN(C)C)c2ccccc2)C3(C)C)CC1 , report its IC50.
Completion: < 0.1 µM

Prompt: What does the record list as IC50 for CN(C)C/C=C/C(=O)Nc1ccc(C(=O)Nc2cccc(Nc3ncc(Cl)c(-c4c[nH]c5ccccc45)n3)c2)nc1 ?
Completion: < 0.1 µM

Prompt: I have this molecule here, C=CC(=O)NCc1ncc(-c2ccc([C@H](C)C(=O)Nc3cc(C4CC4)[nH]n3)cc2)cc1F , and I need its recorded IC50.
Completion: 1.31 µM

Prompt: # lookup: IC50 of C=CC(=O)Nc1ccc(C(=O)Nc2n[nH]c3c2CN(C(=O)N[C@H](CN(C)C)c2ccccc2)[C@@H]3c2ccccc2)cc1
Completion: ≥ 1 µM

Prompt: What value of IC50 has been reported for the following molecule? Cc1cc(N)ccc1C(=O)N1CCC(Nc2ncc(Cl)c(-c3c[nH]c4ccccc34)n2)CC1
Completion: 0.1 to 1 µM

Prompt: Quick one: IC50 for Cc1nc(Nc2n[nH]c3c2CN(C(=O)N[C@H](CN(C)C)C2CCOCC2)C3(C)C)c2sccc2n1 ?
Completion: 0.0391 µM
